Catalogue of binders with associated kon
target: cynomolgus monkey CD3 E&D complex protein (Sino Biological Inc., CT032-00323H) (cynomolgus monkey) (UniProt Q95LI5); assay: SPR, antigen on chip
Sequence (Q95LI5 22-117, chain 1 of 2): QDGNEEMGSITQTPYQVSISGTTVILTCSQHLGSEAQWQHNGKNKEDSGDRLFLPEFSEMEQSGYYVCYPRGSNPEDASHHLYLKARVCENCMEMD
Sequence (Q95LI8 22-105, chain 2 of 2, further chain): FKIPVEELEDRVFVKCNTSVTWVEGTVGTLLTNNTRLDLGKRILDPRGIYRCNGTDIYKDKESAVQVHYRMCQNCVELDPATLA
Response body: numeric value in M⁻¹ s⁻¹, unit text excluded.

# BINDER, kon / M⁻¹ s⁻¹
records = [
    ("SGN70-sp34.101HL (bispecific antibody, part only; not given: anti-CD70 Fab arm and Fc, not shown: another chain or arm of the molecule; a dimerising Fc or GST; large carriers) scFv: EVQLVESGGGLVQPGGSLKLSCAASGFTFNTYAMNWVRQASGKGLEWVGRIRSKYNNYATYYADSVKDRFTISRDDSKSTLYLQMNSLKTEDTAVYYCARHGNFGQSAASWFAYWGQGTTVTVSSGGGGSGGGGSGGGGSGGGGSQAVVTQEPSLTVSPGGTVTLTCRSSTGAVTTSNYANWVQQKPGQAPRGLIGGTNKRAPGVPARFSGSLLGDKAALTLLGAQPEDEAEYYCALWYSNLWVFGQGTKLTVL", 269000),
    ("SGN70-sp34.87HL (bispecific antibody, part only; not given: anti-CD70 Fab arm and Fc, not shown: another chain or arm of the molecule; a dimerising Fc or GST) scFv: EVQLVESGGGLVQPGGSLKLSCAASGFTFNTYAMNWVRQASGKGLEWVGRIRSKYNNYATYYADSVKDRFTISRDDSKSTLYLQMNSLKTEDTAVYYCARHYNFGQSYVSWFAYWGQGTTVTVSSGGGGSGGGGSGGGGSGGGGSQAVVTQEPSLTVSPGGTVTLTCRSSTGAVTTSNYANWVQQKPGQAPRGLIGGTNKRAPGVPARFSGSLLGDKAALTLLGAQPEDEAEYYCALWYSNLWVFGQGTKLTVL", 308000),
]

Read the next record carefully.
Q. Look up kon for this binder: SGN70-sp34.97HL (bispecific antibody, part only; not given: anti-CD70 Fab arm and Fc, not shown: another chain or arm of the molecule; a dimerising Fc or GST) scFv: EVQLVESGGGLVQPGGSLKLSCAASGFTFNTYAMNWVRQASGKGLEWVGRIRSKAGGYATYYADSVKDRFTISRDDSKSTLYLQMNSLKTEDTAVYYCARHGNFGQSYVSWFAYWGQGTTVTVSSGGGGSGGGGSGGGGSGGGGSQAVVTQEPSLTVSPGGTVTLTCRSSTGAVTTSNYANWVQQKPGQAPRGLIGGTNKRAPGVPARFSGSLLGDKAALTLLGAQPEDEAEYYCALWYSNLWVFGQGTKLTVL
A. 128000

# credit: patent US20230374132A1
